measured_on: EGFR Del19/T790M/C797S (Homo sapiens, UniProt P00533, C797S/DEL746-750/T790M)
Sequence (P00533 with tags, fused parts or gaps DEL746-750/T790M/C797S): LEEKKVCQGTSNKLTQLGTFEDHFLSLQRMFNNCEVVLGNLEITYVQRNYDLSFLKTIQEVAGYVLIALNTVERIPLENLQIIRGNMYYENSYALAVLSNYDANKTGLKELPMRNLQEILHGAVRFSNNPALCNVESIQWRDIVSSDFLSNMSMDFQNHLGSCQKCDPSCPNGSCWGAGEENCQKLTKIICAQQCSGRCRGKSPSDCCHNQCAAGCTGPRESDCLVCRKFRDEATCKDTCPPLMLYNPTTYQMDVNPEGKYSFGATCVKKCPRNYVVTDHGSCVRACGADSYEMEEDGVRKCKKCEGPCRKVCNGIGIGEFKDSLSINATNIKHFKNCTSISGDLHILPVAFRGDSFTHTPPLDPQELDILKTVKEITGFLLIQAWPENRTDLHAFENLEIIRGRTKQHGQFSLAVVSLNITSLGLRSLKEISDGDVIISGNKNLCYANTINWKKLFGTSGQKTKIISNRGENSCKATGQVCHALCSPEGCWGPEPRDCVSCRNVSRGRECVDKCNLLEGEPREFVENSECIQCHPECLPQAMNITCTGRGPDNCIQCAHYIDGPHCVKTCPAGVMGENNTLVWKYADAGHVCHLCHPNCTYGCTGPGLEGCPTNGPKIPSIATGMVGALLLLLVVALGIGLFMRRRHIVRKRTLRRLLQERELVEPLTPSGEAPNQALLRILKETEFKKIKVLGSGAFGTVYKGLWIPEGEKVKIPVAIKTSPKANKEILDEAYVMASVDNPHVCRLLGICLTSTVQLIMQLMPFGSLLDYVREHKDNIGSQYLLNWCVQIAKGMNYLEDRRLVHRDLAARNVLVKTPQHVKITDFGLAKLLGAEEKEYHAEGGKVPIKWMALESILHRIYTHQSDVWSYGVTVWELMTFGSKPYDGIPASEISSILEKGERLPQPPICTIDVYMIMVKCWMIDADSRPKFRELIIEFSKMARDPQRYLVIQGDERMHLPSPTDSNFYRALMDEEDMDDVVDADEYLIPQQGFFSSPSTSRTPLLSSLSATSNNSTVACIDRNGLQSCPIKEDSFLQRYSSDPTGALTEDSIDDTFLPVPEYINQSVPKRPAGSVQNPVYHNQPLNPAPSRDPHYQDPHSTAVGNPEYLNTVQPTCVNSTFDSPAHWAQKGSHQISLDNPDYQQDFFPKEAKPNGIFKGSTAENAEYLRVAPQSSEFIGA
test_description: Biochemical EGFR kinase inhibition assay (Lance Ultra TR-FRET), triple mutant del19/T790M/C797S
recorded_conditions: Km ATP; read-out: IC50 Del19/T790M/C797S (nM) Km ATP
So basically: is IC50 under 2 nM? Then TRUE. Not under? Then FALSE.

Cn1cc(C#Cc2cnc(Nc3ccnc(-c4cnn(S(=O)(=O)C5CC5)c4)n3)cc2N2CCC(O)CC2)cn1 [Example 27] :: TRUE

Please state whether IC50 is below 2 nM for CC1(CO)CCN(c2cc(Nc3ccnc(-c4cnn(S(=O)(=O)C5CC5)c4)n3)ncc2C#Cc2cnn(CC3CC3)c2)CC1 [Example 48]
FALSE

API: query returns whether the compound falls strictly under 2 nM in IC50. Query: CN1CCN(c2cc(Nc3ccnc(-c4cnn(S(=O)(=O)C5CC5)c4)n3)ncc2C#Cc2cnn(C)c2)CC1 [Example 1]
TRUE

Dear colleague, could you confirm whether IC50 of O=S(=O)(C1CC1)n1cc(-c2nccc(Nc3cc(N4CCCC(O)C4)c(C#Cc4cnn(C5CCOCC5)c4)cn3)n2)cn1 (stereo not shown) [Example 99] falls below 2 nM? Thanks.
TRUE

I'd appreciate it if you could check whether Cn1ccc(C#Cc2cnc(Nc3ccnc(-c4cnn(S(=O)(=O)C5CC5)c4)n3)cc2N[C@H]2CC[C@@H](O)CC2)n1 [Example 106] has IC50 smaller than 2 nM.
TRUE

Is IC50 strictly under 2 nM for the entry CCC(C)Oc1cc(Nc2ccnc(-c3cnn(S(=O)(=O)C4CC4)c3)n2)ncc1C#Cc1cnn(C(C)C)c1 (stereo not shown) [Example 57] ?
FALSE

Input CC(=O)N1CCC(n2cc(C#Cc3cnc(Nc4ccnc(-c5cnn(S(=O)(=O)C6CC6)c5)n4)cc3N3CCC(F)CC3)cn2)CC1 [Example 112] ; condition: IC50 strictly below 2 nM. Does it hold?
TRUE

Is 2 nM strictly greater than the compound's reported IC50? compound: Cn1cc(C#Cc2cnc(Nc3ccnc(-c4cnn(S(=O)(=O)C5CC5)c4)n3)cc2N[C@H]2CC[C@@H](O)CC2)cn1 [Example 41]
TRUE

Just wondering, is IC50 of Cn1cc(C#Cc2cnc(Nc3ccnc(-c4cnn(S(=O)(=O)C5CC5)c4)n3)cc2N[C@H]2CCC[C@H](O)C2)cn1 [Example 43] below 2 nM?
TRUE

Dear colleague, could you confirm whether IC50 of Cn1cc(C#Cc2cnc(Nc3ccnc(-c4cnn(S(=O)(=O)C5CC5)c4)n3)cc2N2CCC(NCC(F)(F)F)CC2)cn1 [Example 135] falls below 2 nM? Thanks.
TRUE

Check if IC50 falls below 2 nM for CN(C)C[C@H]1CC[C@H](COc2cc(Nc3ccnc(-c4cnn(S(=O)(=O)C5CC5)c4)n3)ncc2C#Cc2cnn(C3CC3)c2)CC1 [Example 60] .
TRUE

Dear colleague, could you confirm whether IC50 of CC(=O)N1CCC(n2cc(C#Cc3cnc(Nc4ccnc(-c5cnn(S(=O)(=O)C6CC6)c5)n4)cc3N3CCC(NCCN(C)C)CC3)cn2)CC1 [Example 139] falls below 2 nM? Thanks.
TRUE

For Cn1cc(C#Cc2cnc(Nc3ccnc(-c4cnn(S(=O)(=O)C5CC5)c4)n3)cc2-c2cnn(C3CC3)c2)cn1 [Example 235] , is the recorded IC50 below the cut-off of 2 nM?
FALSE

* * *

Catalogue of IC50 readings, one per entry.
measured_on: EGFR L858R/T790M/C797S (Homo sapiens, UniProt P00533, C797S/L858R/T790M)
Sequence (P00533 25-1210 T790M/C797S/L858R): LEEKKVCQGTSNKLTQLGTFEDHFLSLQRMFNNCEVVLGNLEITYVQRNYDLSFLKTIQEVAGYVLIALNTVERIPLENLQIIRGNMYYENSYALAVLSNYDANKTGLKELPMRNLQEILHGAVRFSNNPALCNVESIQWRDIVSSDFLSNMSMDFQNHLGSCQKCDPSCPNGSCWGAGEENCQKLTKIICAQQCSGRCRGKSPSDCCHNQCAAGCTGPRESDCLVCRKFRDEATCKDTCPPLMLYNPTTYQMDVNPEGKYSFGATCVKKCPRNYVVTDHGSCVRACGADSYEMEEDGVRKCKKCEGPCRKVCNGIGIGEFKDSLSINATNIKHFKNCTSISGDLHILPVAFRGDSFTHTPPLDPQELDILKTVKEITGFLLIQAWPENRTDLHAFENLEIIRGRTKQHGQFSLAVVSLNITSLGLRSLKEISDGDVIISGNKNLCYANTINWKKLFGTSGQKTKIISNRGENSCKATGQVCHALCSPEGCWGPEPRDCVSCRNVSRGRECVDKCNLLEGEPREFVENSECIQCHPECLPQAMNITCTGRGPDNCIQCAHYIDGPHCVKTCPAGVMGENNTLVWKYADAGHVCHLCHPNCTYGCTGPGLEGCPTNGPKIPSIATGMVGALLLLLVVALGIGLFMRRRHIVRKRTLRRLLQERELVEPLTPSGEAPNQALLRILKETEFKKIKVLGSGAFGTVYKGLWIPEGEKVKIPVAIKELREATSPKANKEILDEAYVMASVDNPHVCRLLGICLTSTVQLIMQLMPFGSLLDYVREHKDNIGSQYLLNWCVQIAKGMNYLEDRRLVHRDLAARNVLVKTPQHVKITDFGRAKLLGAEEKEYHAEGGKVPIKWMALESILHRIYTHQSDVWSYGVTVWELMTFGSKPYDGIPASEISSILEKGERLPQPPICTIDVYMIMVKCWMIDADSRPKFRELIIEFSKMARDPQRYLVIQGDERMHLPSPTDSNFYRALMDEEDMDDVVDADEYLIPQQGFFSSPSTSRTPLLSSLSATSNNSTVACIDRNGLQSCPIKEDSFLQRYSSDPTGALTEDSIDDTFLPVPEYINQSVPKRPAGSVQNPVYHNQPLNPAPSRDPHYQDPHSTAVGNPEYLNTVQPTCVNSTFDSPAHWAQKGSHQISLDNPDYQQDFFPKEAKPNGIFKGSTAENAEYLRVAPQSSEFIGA
test_description: Biochemical EGFR kinase inhibition assay (Lance Ultra TR-FRET), triple mutant L858R/T790M/C797S
recorded_conditions: read-out: IC50 L858R/T790M/C797S (nM), 100 μM ATP
The reply should be a number in nM, with the unit left off.

Past entries and their recorded results:
C[C@]1(O)CC[C@@H](Nc2cc(Nc3ccnc(-c4cnn(S(=O)(=O)C5CC5)c4)n3)ncc2C#CCN2CCOCC2)CC1 :: 3.8
O=S(=O)(C1CC1)n1cc(-c2nccc(Nc3cc(N[C@H]4CC[C@@H](O)CC4)c(C#Cc4cccc(NCCN5CCOCC5)c4)cn3)n2)cn1 :: 10.5
O=S(=O)(C1CC1)n1cc(-c2nccc(Nc3cc(N[C@H]4CC[C@@H](O)CC4)c(C#Cc4ccc(NCCN5CCOCC5)cc4)cn3)n2)cn1 :: 14.5
CN(C)C(=O)Cn1cc(C#Cc2cnc(Nc3ccnc(-c4cnn(S(=O)(=O)C5CC5)c4)n3)cc2N[C@H]2CC[C@@](C)(O)CC2)cn1 :: 2.2
Cn1cnc(C#Cc2cnc(Nc3ccnc(-c4cnn(S(=O)(=O)C5CC5)c4)n3)cc2N[C@H]2CC[C@@H](O)CC2)c1 :: 0.8

Please examine the following record next.
Could you please provide reported IC50 for `C[C@]1(O)CC[C@@H](Nc2cc(Nc3ccnc(-c4cnn(S(=O)(=O)C5CC5)c4)n3)ncc2C#Cc2ccc(CN3CCOCC3)cc2)CC1` ? Thanks!
8.4

* * *

measured_on: EGFR wildtype (WT) (Homo sapiens)
Sequence (P00533 25-1210): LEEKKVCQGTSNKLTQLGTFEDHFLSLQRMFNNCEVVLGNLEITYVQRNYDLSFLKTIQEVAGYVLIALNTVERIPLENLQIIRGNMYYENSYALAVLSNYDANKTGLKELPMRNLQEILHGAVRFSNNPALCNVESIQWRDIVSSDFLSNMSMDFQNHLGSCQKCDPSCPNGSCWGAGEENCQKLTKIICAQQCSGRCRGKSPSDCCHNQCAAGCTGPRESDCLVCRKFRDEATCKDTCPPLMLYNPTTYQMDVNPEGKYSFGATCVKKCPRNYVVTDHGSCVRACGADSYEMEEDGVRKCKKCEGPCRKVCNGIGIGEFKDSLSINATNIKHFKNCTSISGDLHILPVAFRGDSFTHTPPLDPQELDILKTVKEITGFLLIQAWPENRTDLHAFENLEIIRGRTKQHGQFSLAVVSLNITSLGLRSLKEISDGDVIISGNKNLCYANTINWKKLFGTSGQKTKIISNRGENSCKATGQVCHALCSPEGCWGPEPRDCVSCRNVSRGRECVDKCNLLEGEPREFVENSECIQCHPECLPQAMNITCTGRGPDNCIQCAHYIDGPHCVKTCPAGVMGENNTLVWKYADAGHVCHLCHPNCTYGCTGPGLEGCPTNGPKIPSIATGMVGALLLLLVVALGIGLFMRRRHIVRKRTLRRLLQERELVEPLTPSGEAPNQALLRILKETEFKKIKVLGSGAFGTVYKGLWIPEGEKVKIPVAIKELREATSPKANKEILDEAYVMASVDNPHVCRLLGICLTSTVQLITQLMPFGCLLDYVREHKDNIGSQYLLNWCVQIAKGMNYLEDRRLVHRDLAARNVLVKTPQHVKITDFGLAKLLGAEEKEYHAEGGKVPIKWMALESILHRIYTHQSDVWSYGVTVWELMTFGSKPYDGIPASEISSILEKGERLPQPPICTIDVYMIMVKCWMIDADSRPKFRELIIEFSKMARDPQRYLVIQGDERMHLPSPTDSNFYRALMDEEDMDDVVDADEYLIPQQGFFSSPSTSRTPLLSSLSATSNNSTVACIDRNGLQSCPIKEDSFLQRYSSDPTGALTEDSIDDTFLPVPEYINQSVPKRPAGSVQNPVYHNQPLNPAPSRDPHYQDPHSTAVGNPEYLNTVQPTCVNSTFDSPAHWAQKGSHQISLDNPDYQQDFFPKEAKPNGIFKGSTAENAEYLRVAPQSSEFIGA
test_description: Biochemical EGFR kinase inhibition assay (Lance Ultra TR-FRET), wildtype
recorded_conditions: IC50 WT (nM), 100 μM ATP
outcome_measure: IC50 (nM)
Give just the numeric value; nM need not be written.

CC(=O)N1CCC(n2cc(C#Cc3cnc(Nc4ccnc(-c5cnn(S(=O)(=O)C6CC6)c5)n4)cc3N3CCC(C)(CO)CC3)cn2)CC1 :: 296

Hello, please tell me recorded IC50 for this one: `CN1CCN(Cc2ccc(C#Cc3cnc(Nc4ccnc(-c5cnn(S(=O)(=O)C6CC6)c5)n4)cc3N3CCC(C)(CO)CC3)cn2)CC1`
111

* * *

measured_on: EGFR wildtype (WT) (Homo sapiens)
test_description: Biochemical EGFR kinase inhibition assay (Lance Ultra TR-FRET), wildtype
recorded_conditions: IC50 WT (nM), 100 μM ATP
Method: Biochemical EGFR kinase assays were conducted using Lance Ultra time-resolved fluorescence resonance energy transfer (TR-FRET) technology from Perkin-Elmer. […] Each kinase reactions were incubated at room temperature for 1 hour and then stopped by the addition of 4 μL of stop solution (10 mM EDTA). […] After 60 minutes incubation at room temperature the LANCE signal was measured on an EnVision Multilabel Reader (Perkin-Elmer). […]
outcome_measure: IC50

Recorded results for 2 compounds are shown here.
Cn1cnc(C#Cc2cnc(Nc3ccnc(-c4cnn(S(=O)(=O)C5CC5)c4)n3)cc2N2CCC(O)CC2)n1 :: > 10000 nM
CCc1cnc(C#Cc2cnc(Nc3ccnc(-c4cnn(S(=O)(=O)C5CC5)c4)n3)cc2N[C@@H]2CCC[C@H](O)C2)s1 :: > 10000 nM

Entry `CC1(CO)CCN(c2cc(Nc3ccnc(-c4cnn(S(=O)(=O)C5CC5)c4)n3)ncc2C#Cc2cccc(C(=O)N3CCOCC3)c2)CC1` needs its IC50 filled in; supply it.
2500 nM

Recall and state the measured IC50 for `CN(C)CCCn1cc(C#Cc2cnc(Nc3ccnc(-c4cnn(S(=O)(=O)C5CC5)c4)n3)cc2N[C@H]2CC[C@@H](O)CC2)cn1` .
1080 nM

Identify measured IC50 corresponding to Cn1cc(C#Cc2cnc(Nc3ccnc(-c4cnn(S(=O)(=O)C5CC5)c4)n3)cc2N2CCC(O)C(C)(C)C2)cn1 (stereo not shown)
> 10000 nM

* * *

measured_on: EGFR Del19/C797S (Homo sapiens, UniProt P00533, C797S/DEL746-750)
Sequence (P00533 with tags, fused parts or gaps DEL746-750/C797S): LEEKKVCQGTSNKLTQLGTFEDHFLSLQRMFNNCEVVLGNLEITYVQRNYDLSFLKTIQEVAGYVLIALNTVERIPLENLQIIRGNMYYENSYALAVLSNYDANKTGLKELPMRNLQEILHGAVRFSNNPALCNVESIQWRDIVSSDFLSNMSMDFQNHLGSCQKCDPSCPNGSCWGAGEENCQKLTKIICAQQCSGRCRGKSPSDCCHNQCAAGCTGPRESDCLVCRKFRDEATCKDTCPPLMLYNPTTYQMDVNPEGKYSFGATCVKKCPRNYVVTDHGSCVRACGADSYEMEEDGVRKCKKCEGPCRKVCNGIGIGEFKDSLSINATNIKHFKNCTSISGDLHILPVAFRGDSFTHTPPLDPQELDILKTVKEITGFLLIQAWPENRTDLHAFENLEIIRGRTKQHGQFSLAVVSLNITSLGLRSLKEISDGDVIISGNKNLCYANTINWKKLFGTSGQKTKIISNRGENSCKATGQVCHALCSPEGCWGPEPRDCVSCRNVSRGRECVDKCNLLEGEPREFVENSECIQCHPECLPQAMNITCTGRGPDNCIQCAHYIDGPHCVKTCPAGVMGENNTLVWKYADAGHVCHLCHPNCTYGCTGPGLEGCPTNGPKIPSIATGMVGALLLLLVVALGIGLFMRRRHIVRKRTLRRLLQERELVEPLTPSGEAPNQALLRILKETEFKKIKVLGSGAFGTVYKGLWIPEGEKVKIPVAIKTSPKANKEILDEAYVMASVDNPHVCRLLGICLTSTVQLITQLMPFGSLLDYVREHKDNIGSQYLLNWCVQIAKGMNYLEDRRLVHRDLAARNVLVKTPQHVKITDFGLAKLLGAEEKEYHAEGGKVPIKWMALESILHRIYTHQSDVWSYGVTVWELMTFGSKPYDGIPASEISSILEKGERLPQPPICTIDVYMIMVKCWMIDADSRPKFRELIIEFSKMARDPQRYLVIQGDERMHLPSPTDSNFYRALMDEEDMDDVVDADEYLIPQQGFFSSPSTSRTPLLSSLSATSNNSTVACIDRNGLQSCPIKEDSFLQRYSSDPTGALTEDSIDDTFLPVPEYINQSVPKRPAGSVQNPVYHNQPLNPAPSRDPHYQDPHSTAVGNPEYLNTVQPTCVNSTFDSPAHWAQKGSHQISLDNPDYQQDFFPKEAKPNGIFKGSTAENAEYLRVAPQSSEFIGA
test_description: Biochemical EGFR kinase inhibition assay (Lance Ultra TR-FRET), double mutant del19/C797S
recorded_conditions: Km ATP; read-out: IC50 Del19/C797S (nM), Km ATP
outcome_measure: IC50 (nM)
Unit nM implied. Number only.

Below: 2 molecules and their reported IC50.
CC1(CO)CCN(c2cc(Nc3ccnc(-c4cnn(S(=O)(=O)C5CC5)c4)n3)ncc2C#CC2CCN(S(C)(=O)=O)C2)CC1 (centres unmarked) :: 0.3
CC1OCCC1C#Cc1cnc(Nc2ccnc(-c3cnn(S(=O)(=O)C4CC4)c3)n2)cc1NC1CCC(CO)CC1 (centres unmarked) :: 1.3

Moving on to the next molecule.
Please report the measured IC50 for `O=S(=O)(C1CC1)N1CCC(C#Cc2cnc(Nc3ccnc(-c4cnn(S(=O)(=O)C5CC5)c4)n3)cc2N[C@H]2CC[C@@H](CO)CC2)CC1`
7.3

* * *

# IC50 per entry
measured_on: EGFR L858R/T790M/C797S (Homo sapiens, UniProt P00533, C797S/L858R/T790M)
test_description: Biochemical EGFR kinase inhibition assay (Lance Ultra TR-FRET), triple mutant L858R/T790M/C797S
recorded_conditions: IC50 L858R/T790M/C797S (nM), 100 μM ATP
Protocol: Biochemical EGFR kinase assays were conducted using Lance Ultra time-resolved fluorescence resonance energy transfer (TR-FRET) technology from Perkin-Elmer. […] Each kinase reactions were incubated at room temperature for 1 hour and then stopped by the addition of 4 μL of stop solution (10 mM EDTA). […] After 60 minutes incubation at room temperature the LANCE signal was measured on an EnVision Multilabel Reader (Perkin-Elmer). […]
Your answer is read as nM, so omit the unit and give the number.

Completed entries (count: 5):
CS(=O)(=O)N1CCC(C#Cc2cnc(Nc3ccnc(-c4cnn(S(=O)(=O)C5CC5)c4)n3)cc2NCC2CCC(CO)CC2)C1 (stereo not drawn) :: 22.5
Cc1nn(S(=O)(=O)N(C)C)cc1-c1nccc(Nc2cc(N3CCC(C)(CO)CC3)c(C#Cc3cnn(C(F)(F)F)c3)cn2)n1 :: 3.1
CN(C)CC1(O)CCN(c2cc(Nc3ccnc(-c4cnn(S(=O)(=O)C5CC5)c4)n3)ncc2C#Cc2cnn(C)c2)CC1 :: 6.8
CNC1CCN(c2cc(Nc3ccnc(-c4cnn(S(=O)(=O)C5CC5)c4)n3)ncc2C#Cc2ccn(C)n2)CC1 :: 6.4
Cn1cc(C#Cc2cnc(Nc3ccnc(-c4cnn(S(=O)(=O)C5CC5)c4)n3)cc2N2CCC3(CCNC3)CC2)cn1 :: 0.1

// below: IC50 requested for another molecule
Input `O=S(=O)(C1CC1)n1cc(-c2nccc(Nc3cc(N4CCC[C@H](O)C4)c(C#Cc4cnn(C(F)(F)F)c4)cn3)n2)cn1` , output reported IC50.
3.7
